Test system: HOP-92
Experiment: NCI tumour cell line growth inhibition, 48 h
Activity calls are given as the source filed them. Rule as the data show it: active = GI50 up to about 1.1 µM and inactive = higher.
In this exercise, the only acceptable responses are label 1 = active, label 0 = inactive

Recorded test outcome, item Nc1ccccc1S(=O)(=O)c1ccccc1
label 0

How was CC(=O)O[C@H]1C[C@@H](OC(C)=O)[C@@](C)(O)[C@@H]2[C@@H](OC(C)=O)[C@@]3(O)[C@H](/C=C(/CCl)[C@H]4O[C@H]4[C@@H](OC(C)=O)[C@@]12C)OC(=O)[C@@H]3C classified in this test?
label 0

Could you check what this test reported for CC(C)CC(N)C(=O)NC(CNC(CCC(N)=O)C(=O)NC(CC(C)C)C(=O)NC(CC(C)C)C(=O)O)Cc1ccc2ccccc2c1 (stereo not given) ?
label 0

Check the results log: what was the call for C/C(=N\Nc1nc2ccccc2s1)c1ccncn1 ?
label 1

Could you please tell me the result logged for COC(=O)C(/C(=N/N)C(=O)Nc1cc(Cl)c(Cl)cc1Cl)c1nc2ccc(Cl)cc2nc1O (stereo not given) in this assay?
label 0

Assay outcome for O/N=C1\CSc2ccccc2C1 : what was it?
label 0

For Cc1ccc(C(=O)NN=C(/N=N/c2cccc(C)c2)c2ccc(N(C)C)cc2)cc1 , what call appears in the results of this test?
label 0

Please state the recorded outcome for this compound: COc1ccc(N2C(=O)/C(=C\c3cccc(Oc4ccccc4)c3)SC2c2ccccc2)cc1 (stereo not given)
label 0

How was CC(=O)Nc1ccc(/C=N\N2C(=O)c3ccccc3C2=O)cc1 classified in this test?
label 0

Recorded test call requested for Cc1cc2oc(C)c(S(=O)(=O)NC(=O)Nc3ccc(Cl)cc3)c(=O)c2c(=O)o1
label 0

// param item: N=C(N)SC(c1ccccc1)c1ccccc1 ; yields the recorded call
label 0

Call for entry Cn1nc(-c2ccccc2)c2c(/C=C/c3ccc(Cl)cc3)onc2c1=O :
label 0

Call for entry O=C1/C(=C/c2cccnc2)C(n2cccc2)c2c(Br)sc(Br)c21 (stereo not given) :
label 0

For O=c1c2cccnc2[nH]c2ccc3scnc3c12 , which call appears in the assay record?
label 0

State the result this test recorded for CC1(Br)C(=O)NC(=O)N([C@H]2C[C@H](O)[C@@H](CO)O2)C1N=[N+]=[N-] (stereo not given in full) .
label 0

Could you check what this test reported for Nc1ncnc2c(C3OC(CO)C(O)C3O)c[nH]c12 (stereo not given) ?
label 1

State the result this test recorded for CN1C2(c3ccccc3)C(C(=O)c3ccccc3)=C(C(=O)c3ccccc3)C1(c1ccccc1)c1c(-c3ccccc3)sc(-c3ccccc3)c12 .
label 0

Name the outcome recorded for O=[N+]([O-])c1cccc2nccc(NCC(O)CO)c12 (stereo not given) in the assay.
label 0

I'd appreciate the recorded outcome for COc1cc2c(=O)cnoc2cc1O from this test.
label 0

Answer briefly: the call reported for CCOP(=O)(CN=C(c1ccccc1)c1ccccc1)OCC in this assay.
label 0
